Tested on: DeltatarO mutant
assay.remarks: growth inhibition of S. aureus wild type versus tarO mutant, primary screen, teichoic acid synthesis inhibitors, RN4220, OD600 (AID 463173)
test.conditions: OD600, 18 h, hits give low values, concentration not given here
About 4,300 (8.3%) of roughly 52,000 compounds were called active. This excerpt belongs to a sample that is enriched for actives.
# note: boundary value 80% maps to NO; survival below it maps to YES

Examples with answers:
sample.smiles: Cc1ccc(-n2c(/C=C/c3ccccc3)nc3ccccc3c2=O)cc1Cl
class.name: YES
//
sample.smiles: Cc1cccnc1-n1c(C)nc2ccccc2c1=O
class.name: YES
//
sample.smiles: O=C1CC(=O)N(C2CCCCC2)C(=O)N1
class.name: YES
//
sample.smiles: CCOc1ccc(CN(CCc2ccc3c(c2)OCO3)Cc2cc(OC)ccc2O)cc1
class.name: YES

Note: attention shifts to another entry.
[in] Lab note: confirm whether the reported survival for this compound is below 80%, equality not counting. compound: `CCN(CC)CCSc1nc2ccccc2c(=O)n1-c1ccc(Cl)cc1`
[out] NO
